assay info: in vitro
run parameters: human
measured metric: CC50 (µM)
Give bare numbers, in µM.

*Q* Using the record for Cc1[nH]c2ccc(-c3nnc(SCC(=O)N4CCCC4)o3)cc2c1C , report its CC50.
*A* 108

###

Tested on: A549 cells
run parameters: human
measured metric: CC50 (nM)
One number for each entry, in nM.

*Q* Using the record for C[C@@H]1O[C@@H](O[C@H]2C[C@@H](O)[C@]3(CO)[C@H]4[C@H](O)C[C@]5(C)[C@@H](C6=CC(=O)OC6)CC[C@]5(O)[C@@H]4CC[C@]3(O)C2)[C@H](O)[C@H](O)[C@H]1O , report its CC50.
*A* 47

###

assay info: in vitro
run parameters: human
measured metric: CC50 at 24 h

*Q* Using the record for Cc1[nH]c2ccc(-c3nnc(SCC(=O)N4CCCC4)o3)cc2c1C , report its CC50 at 24 h.
*A* 268 µM

###

assay info: in vitro
run parameters: human
measured metric: CC50 (µM)
One number for each entry, in µM.

*Q* Using the record for CCN(CC)S(=O)(=O)c1ccc(-c2nnc(SCC(=O)N3CCCC3)o2)cc1 [A3-1] , report its CC50.
*A* 316

*Q* Using the record for Cc1[nH]c2ccc(-c3nnc(SCC(=O)N4CCc5ccccc54)o3)cc2c1C [A3-3] , report its CC50.
*A* 65

Answer for every listed entry: what is its CC50? The entries follow.
1. O=C(CSc1nnc(-c2cc3ccccc3o2)o1)N1CCCC1 [A3-9]
2. Cc1[nH]c2ccc(-c3nnc(SCC(=O)N(C(C)C)C(C)C)o3)cc2c1C [A3-4]

*A*
[197, 17.7]

###

assay info: in vitro
run parameters: mouse
measured metric: CC50 (µM)
Numbers only, in µM.

*Q* Using the record for CN(c1nc(-c2ccc(Br)cc2)cs1)C1CCS(=O)(=O)C1 (stereo not drawn) , report its CC50.
*A* 96.6

Now, please, on to the next compound.
*Q* Using the record for COc1cc2c(O)c3c(c(-c4ccc5c(c4)OCO5)c2cc1OC)C(=O)OC3 , report its CC50.
*A* 4.85

###

System: influenza A virus (FluA)
assay info: in vitro
run parameters: human
measured metric: selectivity ratio
One number for each entry.

Worked examples, 2 compounds total:
*Q* Using the record for Cc1[nH]c2ccc(-c3nnc(SCC(=O)N4CCCCCC4)o3)cc2c1C , report its selectivity ratio.
*A* 180

*Q* Using the record for CN(c1ccc(O)cc1)c1nc(-c2ccc(Cl)cc2)cs1 , report its selectivity ratio.
*A* 5

Answer for every listed entry: what is its selectivity ratio? The entries follow.
1. Cc1[nH]c2ccc(-c3nnc(SCC(=O)N4CCc5ccccc54)o3)cc2c1C
2. COc1cc2c(O)c3c(c(-c4ccc5c(c4)OCO5)c2cc1OC)C(=O)OC3
3. CN(c1nc(-c2ccc(Br)cc2)cs1)C1CCS(=O)(=O)C1 (stereo not shown)
4. CN(Cc1ccccc1)c1nc(-c2ccc([N+](=O)[O-])cc2)cs1
5. Cc1[nH]c2ccc(-c3nnc(SCC(=O)N4CCCC4)o3)cc2c1C

*A*
1: 8; 2: 82; 3: 53; 4: 62; 5: 496

Answer for every listed entry: what is its selectivity ratio? The entries follow.
1. Cc1[nH]c2ccc(-c3nnc(SCC(=O)N4CCOCC4)o3)cc2c1C
2. Cc1[nH]c2ccc(-c3nnc(SCC(=O)N(C(C)C)C(C)C)o3)cc2c1C

*A*
1. 514
2. 11

###

Test system: A549 cells
run parameters: human
Assignment: determine reported CC10 (A549), concentration of 10% cytotoxicity for the given compounds.
One number for each entry, in µM.

*Q* Form field: CC10 (A549), concentration of 10% cytotoxicity recorded for Cc1[nH]c2ccc(-c3nnc(SCC(=O)N4CCOCC4)o3)cc2c1C with A549 cells (enter value)
*A* 10.2

*Q* Form field: CC10 (A549), concentration of 10% cytotoxicity recorded for CCN(CC)S(=O)(=O)c1ccc(-c2nnc(SCC(=O)N3CCCC3)o2)cc1 with A549 cells (enter value)
*A* 17.3

*Q* Form field: CC10 (A549), concentration of 10% cytotoxicity recorded for CN(c1nc(-c2ccc(Br)cc2)cs1)C1CCS(=O)(=O)C1 (centres unmarked) with A549 cells (enter value)
*A* 11.2

*Q* Form field: CC10 (A549), concentration of 10% cytotoxicity recorded for Nc1nc(-c2ccc(Cl)cc2)cs1 with A549 cells (enter value)
*A* 11.4

*Q* Form field: CC10 (A549), concentration of 10% cytotoxicity recorded for COc1ccc(-c2nnc(SCC(=O)N3CCCC3)o2)cc1 with A549 cells (enter value)
*A* 11.8

Answer for every listed entry: what is its CC10 (A549), concentration of 10% cytotoxicity? The entries follow.
1. CN(Cc1ccccc1)c1nc(-c2ccc([N+](=O)[O-])cc2)cs1
2. O=C(CSc1nnc(-c2cc3ccccc3[nH]2)o1)N1CCCC1
3. CN(c1nc(-c2ccccc2)cs1)C1CCS(=O)(=O)C1 (centres unmarked)
4. Cc1[nH]c2ccc(-c3nnc(SCC(=O)N(C(C)C)C(C)C)o3)cc2c1C
5. CN(c1ccc(O)cc1)c1nc(-c2ccc(Cl)cc2)cs1
6. Cc1[nH]c2ccc(-c3nnc(SCC(=O)N4CCCC4)o3)cc2c1C
7. O=C(CSc1nnc(-c2cc3ccccc3o2)o1)N1CCCC1
8. Cc1[nH]c2ccc(-c3nnc(SCC(=O)N4CCCCCC4)o3)cc2c1C

*A*
1: 10.8; 2: 15.2; 3: 12.2; 4: 10.7; 5: 6; 6: 38; 7: 10.9; 8: 18.2

Answer for every listed entry: what is its CC10 (A549), concentration of 10% cytotoxicity? The entries follow.
1. CCN(CC)C(=O)CSc1nnc(-c2ccc3[nH]c(C)c(C)c3c2)o1
2. Cc1[nH]c2ccc(-c3nnc(SCC(=O)N4CCc5ccccc54)o3)cc2c1C
3. O=C(CSc1nnc(-c2ccncc2)o1)N1CCCC1
4. O=C(CSc1nnc(-c2cccnc2)o1)N1CCCC1

*A*
29
8.5
11.5
32.6

###

assay info: in vitro
run parameters: human
measured metric: CC50 (µM)
Answers are plain numbers, in µM.

Worked examples, 5 molecules total:
*Q* Using the record for CN(c1nc(-c2ccccc2)cs1)C1CCS(=O)(=O)C1 (centres unmarked) , report its CC50.
*A* 148

*Q* Using the record for Cc1[nH]c2ccc(-c3nnc(SCC(=O)N4CCOCC4)o3)cc2c1C , report its CC50.
*A* 257

*Q* Using the record for Nc1nc(-c2ccc(Cl)cc2)cs1 , report its CC50.
*A* 165

*Q* Using the record for Cc1[nH]c2ccc(-c3nnc(SCC(=O)N4CCCCCC4)o3)cc2c1C , report its CC50.
*A* 179

*Q* Using the record for CN(Cc1ccccc1)c1nc(-c2ccc([N+](=O)[O-])cc2)cs1 , report its CC50.
*A* 201

Answer for every listed entry: what is its CC50? The entries follow.
1. COc1ccc(-c2nnc(SCC(=O)N3CCCC3)o2)cc1
2. O=C(CSc1nnc(-c2ccncc2)o1)N1CCCC1

*A*
250
186

###

assay info: in vitro
run parameters: human
measured metric: CC50

Answer for every listed entry: what is its CC50? The entries follow.
1. O=C(CSc1nnc(-c2cc3ccccc3[nH]2)o1)N1CCCC1 [A3-7]
2. O=C(CSc1nnc(-c2cccnc2)o1)N1CCCC1 [A3-11]

*A*
134 µM
249 µM

Answer for every listed entry: what is its CC50? The entries follow.
1. CCN(CC)C(=O)CSc1nnc(-c2ccc3[nH]c(C)c(C)c3c2)o1 [A3-2]
2. CN(c1ccc(O)cc1)c1nc(-c2ccc(Cl)cc2)cs1 [A35-4]

*A*
1. 198 µM
2. 30 µM
